# target of assay: Xanthine dehydrogenase/oxidase (Bos taurus)
# Sequence (P80457 whole entry): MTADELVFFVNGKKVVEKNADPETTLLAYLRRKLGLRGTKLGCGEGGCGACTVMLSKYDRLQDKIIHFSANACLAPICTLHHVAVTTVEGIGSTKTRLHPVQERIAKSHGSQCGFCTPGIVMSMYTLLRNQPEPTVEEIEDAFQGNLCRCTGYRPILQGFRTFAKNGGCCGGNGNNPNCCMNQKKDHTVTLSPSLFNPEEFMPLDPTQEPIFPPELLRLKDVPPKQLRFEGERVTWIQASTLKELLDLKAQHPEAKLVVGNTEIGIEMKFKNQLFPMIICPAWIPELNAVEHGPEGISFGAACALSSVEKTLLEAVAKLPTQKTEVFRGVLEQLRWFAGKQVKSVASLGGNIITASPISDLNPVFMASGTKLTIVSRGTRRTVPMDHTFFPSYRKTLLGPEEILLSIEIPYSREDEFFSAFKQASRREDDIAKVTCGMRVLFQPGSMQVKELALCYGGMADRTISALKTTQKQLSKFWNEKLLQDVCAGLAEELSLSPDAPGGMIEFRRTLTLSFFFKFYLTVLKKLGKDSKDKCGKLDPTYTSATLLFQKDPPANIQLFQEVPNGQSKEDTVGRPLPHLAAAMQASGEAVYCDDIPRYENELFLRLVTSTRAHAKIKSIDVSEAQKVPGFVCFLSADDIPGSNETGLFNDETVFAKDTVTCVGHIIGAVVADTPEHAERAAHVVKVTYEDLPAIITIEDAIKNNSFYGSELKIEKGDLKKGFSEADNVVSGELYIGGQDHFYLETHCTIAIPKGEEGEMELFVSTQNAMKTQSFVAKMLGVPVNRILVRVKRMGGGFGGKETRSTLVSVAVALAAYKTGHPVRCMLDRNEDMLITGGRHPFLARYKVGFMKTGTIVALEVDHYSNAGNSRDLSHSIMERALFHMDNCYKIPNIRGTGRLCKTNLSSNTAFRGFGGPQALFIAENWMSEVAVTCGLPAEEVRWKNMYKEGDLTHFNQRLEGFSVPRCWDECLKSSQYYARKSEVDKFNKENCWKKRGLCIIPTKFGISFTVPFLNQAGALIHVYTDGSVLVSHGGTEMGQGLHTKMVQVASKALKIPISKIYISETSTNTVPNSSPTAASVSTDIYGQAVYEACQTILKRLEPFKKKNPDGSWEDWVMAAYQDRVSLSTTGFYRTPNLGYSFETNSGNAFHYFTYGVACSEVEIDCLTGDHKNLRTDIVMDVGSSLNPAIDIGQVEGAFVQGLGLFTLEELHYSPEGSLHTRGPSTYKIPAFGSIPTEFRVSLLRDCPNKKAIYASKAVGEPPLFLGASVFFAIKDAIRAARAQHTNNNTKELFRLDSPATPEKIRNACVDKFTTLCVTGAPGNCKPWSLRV
# test: Inhibition of bovine xanthine oxidase assessed as reduction in uric acid formation at 10 uM using xanthine as substrate pretreated for 5 mins followed by substrate addition measured by UV-vis spectrophotometric method relative to control
# condition info: cattle
readout type: inhibition at 10 µM (%)
# value in %; strip the unit string

# count of solved cases: 5
{"columns": ["compound", "readout type", "measured value"],
 "data": [
  ["COc1ccc(Nc2ncnc3c2C(c2ccc(O)c(O)c2)c2c(c(=O)oc4ccccc24)O3)cc1 (centres undefined)", "inhibition at 10 µM", 45.9],
  ["COc1ccc(Nc2ncnc3c2C(c2ccc(O)c(OC)c2)c2c(n[nH]c2C)O3)cc1 (centres undefined)", "inhibition at 10 µM", 32.5],
  ["COc1ccc(Nc2ncnc3c2C(c2ccc(OC)cc2)c2c(c(=O)oc4ccccc24)O3)cc1 (centres undefined)", "inhibition at 10 µM", 43.7],
  ["COc1ccc(Nc2ncnc3c2C(c2cccc([N+](=O)[O-])c2)c2c(c(=O)oc4ccccc24)O3)cc1 (centres undefined)", "inhibition at 10 µM", 31.5],
  ["COc1ccc(Nc2ncnc3c2C(c2ccc(Br)cc2)c2c(c(=O)oc4ccccc24)O3)cc1 (centres undefined)", "inhibition at 10 µM", 32.4]
]}

# query: inhibition at 10 µM | item COc1ccc(Nc2ncnc3c2C(c2ccc(F)cc2)c2c(c(=O)oc4ccccc24)O3)cc1 (centres undefined) | system: Xanthine dehydrogenase/oxidase (Bos taurus)
35.1

Consider next the compound COc1ccc(Nc2ncnc3c2C(c2ccc(O)cc2)C2=C(CCCC2=O)O3)cc1 (centres undefined) in the same way.
42.4

Consider next the compound COc1ccc(Nc2ncnc3c2C(c2ccc(O)c(O)c2)c2c(n[nH]c2C)O3)cc1 (centres undefined) in the same way.
31.6

Reference source for all entries: ChEMBL document CHEMBL4011597
